TESTED ON: Caspase-1 (Homo sapiens, UniProt P29466);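 note: Caspase-1 enzyme inhibition assay with a peptide substrate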; note: in other assays of this panel Not Active means under 50% inhibition at 10 µM
Sequence (P29466 120-297 limits assumed): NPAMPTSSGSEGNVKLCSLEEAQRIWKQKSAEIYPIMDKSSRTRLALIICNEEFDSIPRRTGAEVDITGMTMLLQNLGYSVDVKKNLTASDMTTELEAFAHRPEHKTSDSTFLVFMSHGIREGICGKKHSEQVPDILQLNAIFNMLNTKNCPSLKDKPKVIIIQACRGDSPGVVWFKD
Sequence (P29466 317-404 limits assumed): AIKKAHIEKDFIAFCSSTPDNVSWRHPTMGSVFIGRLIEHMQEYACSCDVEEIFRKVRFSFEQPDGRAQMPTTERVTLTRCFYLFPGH
Set-up: species or system Escherichia coli
ENDPOINT: IC50

- Nc1ccc(C(=O)O)c(O)c1 [AMINOSALICYLIC ACID]: Not Active
- ClC1=C(Cl)[C@]2(Cl)[C@@H]3[C@@H]4C[C@@H]([C@H]5O[C@@H]45)[C@@H]3[C@@]1(Cl)C2(Cl)Cl [DIELDRIN]: Not Active
- CCN(CC)C(=S)SSC(=S)N(CC)CC: Not Active

* * *

Measured pIC50 values are reported for all entries that follow.
TESTED ON: 5-hydroxytryptamine receptor 6 (Homo sapiens, UniProt P50406); note: in other assays of this panel Not Active means under 50% inhibition at 10 µM
Sequence (P50406 whole entry): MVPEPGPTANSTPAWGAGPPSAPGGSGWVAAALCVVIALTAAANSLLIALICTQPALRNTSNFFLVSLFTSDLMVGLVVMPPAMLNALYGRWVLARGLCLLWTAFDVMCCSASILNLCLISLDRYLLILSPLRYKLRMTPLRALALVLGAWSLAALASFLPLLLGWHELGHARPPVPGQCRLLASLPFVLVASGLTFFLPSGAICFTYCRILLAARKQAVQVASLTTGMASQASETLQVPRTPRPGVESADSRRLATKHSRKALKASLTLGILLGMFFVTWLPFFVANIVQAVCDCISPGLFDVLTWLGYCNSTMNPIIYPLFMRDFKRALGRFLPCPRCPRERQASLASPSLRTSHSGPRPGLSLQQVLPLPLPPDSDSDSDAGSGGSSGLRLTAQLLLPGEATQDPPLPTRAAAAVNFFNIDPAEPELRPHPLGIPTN
Type: cell membranes, HeLa, Membrane
MEASUREMENT CONDITIONS: read-out: IC50
// field semantics: pIC50 = negative decimal log of concentration (mol/L)

query: Specify measured pIC50 for CC(CN1c2ccccc2Sc2ccccc21)N(C)C (stereo not given) .
result: 5.61

query: Output pIC50 of CC(N)Cc1c[nH]c2ccc(OCc3cccs3)cc12 (stereo not given)
result: 6.19

query: Check the records and state pIC50 for `CNCCCC12CCC(c3ccccc31)c1ccccc12`
result: 6.05

query: Query pIC50 for `Clc1cc(Cl)c(OCC#CI)cc1Cl`
result: 5.40

query: Input `Cc1cc(C(C)(C)C)c(O)c(C)c1CC1=NCCN1` , output reported pIC50.
result: 5.78
